# Test target: galectin-3 (Homo sapiens (Human))
# Sequence (P17931 whole entry): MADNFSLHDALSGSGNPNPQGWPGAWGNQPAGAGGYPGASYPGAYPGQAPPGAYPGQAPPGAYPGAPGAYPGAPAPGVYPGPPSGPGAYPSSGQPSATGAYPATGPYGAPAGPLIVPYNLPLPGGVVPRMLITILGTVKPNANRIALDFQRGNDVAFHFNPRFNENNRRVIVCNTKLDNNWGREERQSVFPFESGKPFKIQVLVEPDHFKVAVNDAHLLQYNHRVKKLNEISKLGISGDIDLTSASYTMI
# Experiment notes: Fluorescence anisotropy assay, inhibition of galectin / fluorescein tagged saccharide probe interaction
pKd: −log10 of the molar value.
Property name: pKd

[
  {
    "Compound": "CO[C@@H]1[C@@H](n2cc(-c3cc(F)c(F)c(F)c3)nn2)[C@@H](O)[C@@H](CO)O[C@@H]1Sc1cc(Cl)ccc1C(=O)N1CCC1 [Example 70]",
    "Numeric result": 7.92
  },
  {
    "Compound": "CO[C@@H]1[C@@H](n2cc(-c3cc(F)c(F)c(F)c3)nn2)[C@@H](O)[C@@H](CO)O[C@@H]1Sc1cc(Cl)cnc1-c1ccncc1 [Example 27]",
    "Numeric result": 7.25
  }
]

(1) CCO[C@@H]1[C@@H](n2cc(-c3cc(F)c(F)c(F)c3)nn2)[C@@H](O)[C@@H](CO)O[C@@H]1Sc1cc(Cl)cnc1C#N [Example 16]
(2) CO[C@@H]1[C@@H](n2cc(-c3cc(F)c(F)c(F)c3)nn2)[C@@H](O)[C@@H](CO)O[C@@H]1Sc1cncc(Br)c1 [Example 1]
Exercise: Given the two records 1 and 2 , choose the one whose pKd value is lower. Mark your answer with the label of the selected entry.
Solution: 1
(1: 7.23, 2: 7.60)

----------
# Test target: galectin-3 (Homo sapiens (Human))
# Experiment notes: Fluorescence anisotropy assay, inhibition of galectin / fluorescein tagged saccharide probe interaction
pKd: −log10 of the molar value.
Property name: pKd

Some solved entries appear below for comparison.
[
  {
    "Compound": "OCCO[C@@H]1[C@@H](n2cc(-c3cc(F)c(Cl)c(F)c3)nn2)[C@@H](O)[C@@H](CO)O[C@@H]1Sc1ccc(Cl)c(Cl)c1 [Example 21]",
    "Numeric result": 7.24
  },
  {
    "Compound": "CO[C@@H]1[C@@H](n2cc(-c3ccc(Cl)c(F)c3)nn2)[C@@H](O)[C@@H](CO)O[C@@H]1Sc1cncc(Cl)c1 [Example 37]",
    "Numeric result": 7.38
  }
]

(P) CO[C@@H]1[C@@H](n2cc(-c3cc(F)c(F)c(F)c3)nn2)[C@@H](O)[C@@H](CO)O[C@@H]1Sc1cncc(Cl)c1 [Example 42]
(Q) COC1[C@@H](Sc2cc(Cl)c(C#N)nc2N2CC3(COC3)C2)OC(CO)[C@H](O)[C@@H]1n1cc(-c2cc(F)c(Cl)c(F)c2)nn1 (stereo partly shown) [Example 22]
Exercise: Hi there, can you help? I need to know whether P or Q has lower measured pKd. When you have decided, please share the label of that item.
Solution: Q
(Q: 7.22, P: 7.54)

----------
# Test target: UniProt P17931
# Experiment notes: Fluorescence anisotropy assay, inhibition of galectin / fluorescein tagged saccharide probe interaction
Property name: Kd (nM)

[
  {
    "Compound": "CO[C@@H]1[C@@H](n2cc(-c3cc(F)c(Cl)c(F)c3)nn2)[C@@H](O)[C@@H](CO)O[C@@H]1Sc1ccc(Cl)c(Cl)c1 [Example 71]",
    "Test target": "UniProt P17931",
    "Kd, nM": 250
  },
  {
    "Compound": "CCO[C@@H]1[C@@H](n2cc(-c3cc(F)c(F)c(F)c3)nn2)[C@@H](O)[C@@H](CO)O[C@@H]1Sc1cncc(Br)c1 [Example 17]",
    "Test target": "UniProt P17931",
    "Kd, nM": 74
  }
]

(a) CO[C@@H]1[C@@H](n2cc(-c3ccc(Cl)c(F)c3)nn2)[C@@H](O)[C@@H](CO)O[C@@H]1Sc1cc(Cl)cnc1C#N [Example 48]
(b) CO[C@@H]1[C@@H](n2cc(-c3cc(F)c(C)c(F)c3)nn2)[C@@H](O)[C@@H](CO)O[C@@H]1Sc1cc(Cl)cnc1C#N [Example 12]
Exercise: Which record would sort first by descending Kd, a or b ? State the label of the item chosen.
Solution: a
